Molecular target: T1, Soluble heterodimeric CD3 protein (hCD3-epsilon/hCD3-delta) with either a human Fc tag (hFcΔAdp/hFc) or a … (human, UniProt P07766 23-126; P04234 22-105)
T1 construct: also called hCD3ε/δ; not shown: Fc tag: human (hFcΔAdp/hFc)
T1 sequence (P07766 23-126 limits assumed, stated change not applied, chain 1 of 2): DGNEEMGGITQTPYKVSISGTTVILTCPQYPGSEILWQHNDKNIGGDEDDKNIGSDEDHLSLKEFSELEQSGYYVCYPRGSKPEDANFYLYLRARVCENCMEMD
T1 sequence (P04234 22-105 limits assumed, stated change not applied, chain 2 of 2): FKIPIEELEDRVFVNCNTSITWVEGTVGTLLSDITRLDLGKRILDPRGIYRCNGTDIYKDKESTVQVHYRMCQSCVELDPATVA
Test: SPR Biacore 25C antibody-capture
# Lookup of reported koff keyed by entry
All answers are understood in s⁻¹, so give the number only.

Here are 4 binders together with their reported answers.
BINDER	koff, s⁻¹
H1H5790B (antibody, human IgG1, V domains shown, H1H: human IgG1 Fc; divalent) VH: EVQLVESGGGVVQPGRSLRLSCAASGFTFSYYGMHWVRQAPGKGLEWVAVISFDGKNKYYADSVMGRFTISRDNSKNTLYLQMNSLRAEDSAVFFCARSYDILTGYGAGYSYHYGMDVWGQGTTVTVSS VL: AIQMTQSPSSLSASVGDRVTITCRASQRISSFLNWYQQKPGKAPKLLIYTASNLQNGVPSRFSGSGSGTDFTLTISSLQPEDFATYYCQQSYRTPLTFGGGTKVEIKR	0.000517
H1H5758B (antibody, human IgG1, V domains shown, H1H: human IgG1 Fc; divalent) VH: EVQLVESGGGVVQPGRSLRLSCAASGFTFSSYGMHWVRQAPGKGLEWVTVILHDGSNRYYADSVKGRFTISRDNSKNTLYLQMNILRAEDTAVYYCTKGAMVRGVPYNHYYGMDVWGQGTTVTVSS VL: DIVMTQSPSSLSASVGDRVTITCRASQGIRNDLGWYQQKPGKAPKRLIYAASNLQSGVPSRFSGSGSGTEFTLTISSLQPEDFATYYCLQHNSYPYTFGQGTKLEIKR	0.00117
H1H5755B (antibody, human IgG1, V domains shown, H1H: human IgG1 Fc; divalent) VH: EVQLVESGGGVVQPGRSLRLSCAASGFTFSNYGMHWVRQAPGKGLEWVTVILHDGSYKYYADSVKGRFTISRDNSKNTLHLQMNSLRTEDTAVYYCAKGPMFRGVPYNHYYGMDVWGQGTTVTVSS VL: DIQMTQSPSSLSASVGDRVTITCRASQGIRNDLGWYQQKPGKAPKRLIYAASSLQSGVSSRFSGSGSGTEFTLTISSLQPEDFATYYCLQHNSYPYTFGQGTKVEIKR	0.000472
H1H2712N (antibody, human IgG1, V domains shown, H1H: human IgG1 Fc; divalent) VH: EVQLVESGGGLVQPGGSLRLSCAATGFTFDDFTMHWVRQAPGKGLEWVSGISWNSGSIGYVDSVKGRFTISRDNAKNSLYLQMNSLRAEDTALYYCAKDNSGYGYYYYGMDVWGQGTTVTVSS VL: EIVMTQSPATLSVSPGERATLSCRASHSVSRNSAWYQQKPGQAPRLLIYGASTRATGIPARFSGSGSGTEFTLTISSLQSEDFAIYYCQQYNNWPLTFGGGTKVEIK	0.00027

Next up:
Query: koff; subject: H1H5799P (antibody, human IgG1, V domains shown, H1H: human IgG1 Fc; divalent) VH: QVQLVQSGAEVKKPGASVKVSCKASGYTFIGYYMHWVRQAPGQGLEWMGWINPKSGGTNYAQKFQGRVTMTGDTSISTAYMELSRLRSDDTAVFYCARMGDGAMFDYWGQGTLVTVSS VL: DIQMTQSPSSLSASVGDRVTITCRASQRISSYLNWYQQKAGKAPKVLIYTASSLQSGVPSRFSGSGSGTDFTLTISSLQPEDFATYYCQQSYSTPLTFGGGTKVEIK
0.00788
